Target: KRAS-G2D/SOS1 (Homo sapiens, UniProt P01116, G12D)
Sequence (P01116 1-188 isoform P01116-2 G12D): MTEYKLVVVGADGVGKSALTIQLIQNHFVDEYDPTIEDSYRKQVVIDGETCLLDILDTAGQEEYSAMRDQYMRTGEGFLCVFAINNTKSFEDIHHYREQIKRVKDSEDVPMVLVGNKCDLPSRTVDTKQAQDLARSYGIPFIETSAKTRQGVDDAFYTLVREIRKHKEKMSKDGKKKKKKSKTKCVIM
Test: KRAS-G2D/SOS1 binding experiment (HTRF)
Details: His-tagged G12D protein and Tag1-SOS protein, room temperature
Description: […] The ratio of […] and donor excitation signals for each single well was calculated using the formula ratio=665 nm signal value/620 nm signal value×104. […] IC50 values were calculated by sigmoidal dose-response curve fitting.
pIC50: −log10 of the molar value.
value-kind: pIC50

{"smiles-entry": "C[C@@H]1CNCCN1c1nc(OC[C@@H]2CCCN2C)nc2nc(-c3cccc4cccc(Cl)c34)c(F)cc12", "measurement-target": "KRAS-G2D/SOS1 (Homo sapiens, UniProt P01116, G12D)", "pIC50": "6.30 to 7.30"}
{"smiles-entry": "C[C@@H]1CNCCN1c1nc(OC[C@@H]2CCCN2C)nc2nc(-c3c(O)cccc3F)c(F)cc12", "measurement-target": "KRAS-G2D/SOS1 (Homo sapiens, UniProt P01116, G12D)", "pIC50": "< 6.30"}
{"smiles-entry": "Oc1cc(-c2nc3nc(OC[C@@]45CCCN4C[C@H](F)C5)cc(N4C[C@H]5CC[C@@H](C4)N5)c3cc2F)c2c(F)cccc2c1", "measurement-target": "KRAS-G2D/SOS1 (Homo sapiens, UniProt P01116, G12D)", "pIC50": "≥ 7.30"}
{"smiles-entry": "C[C@@H]1CNCCN1c1nc(OC[C@@H]2CCCN2C)nc2nc(-c3cc(O)cc4cccc(Cl)c34)c(F)cc12", "measurement-target": "KRAS-G2D/SOS1 (Homo sapiens, UniProt P01116, G12D)", "pIC50": "≥ 7.30"}
{"smiles-entry": "C[C@@H]1CNCCN1c1nc(OC[C@@H]2CCCN2C)nc2nc(-c3cc(O)cc4cccc(F)c34)c(F)cc12", "measurement-target": "KRAS-G2D/SOS1 (Homo sapiens, UniProt P01116, G12D)", "pIC50": "≥ 7.30"}

Which measured pIC50 value corresponds to "C[C@@H]1CNCCN1c1nc(OC[C@@H]2CCCN2C)nc2nc(-c3cccc4cccc(F)c34)c(F)cc12" ?
6.30 to 7.30

What does the record list as pIC50 for "C#Cc1c(F)ccc2cc(O)cc(-c3nc4nc(OC[C@@]56CCCN5C[C@H](F)C6)nc(N5C[C@H]6CC[C@@H](C5)N6)c4cc3F)c12" ?
≥ 7.30

Entry "C[C@@H]1CNCCN1c1nc(NCCN(C)C)nc2nc(-c3c(O)cccc3F)c(F)cc12" : reported pIC50 = ?
< 6.30

# lookup: pIC50 of "Oc1cc(-c2nc3nc(OC[C@@]45CCCN4C[C@H](F)C5)nc(N4C5CNCC4C5)c3cc2F)c2c(F)cccc2c1"
≥ 7.30

Field request: pIC50 | item: "C[C@@H]1CNCCN1c1nc(OC[C@@H]2CCCN2C)nc2nc(-c3cc(O)cc4ccccc34)c(F)cc12"
≥ 7.30
